UniProt P25103 pKi, compiled from various sources.
pKi: −log10 of the molar value.
measuredMetric: pKi

Here are 8 compounds together with their reported answers.
compound=CN(Cc1ccccc1)C(=O)[C@H](Cc1ccc2ccccc2c1)NC(=O)[C@@H]1CCCN1C(=O)Nc1ccccc1F targetorsystem="UniProt P25103" reading=8.46
compound="FC(F)(F)c1cc(COCC(c2cccs2)N2CCNCC2)cc(C(F)(F)F)c1 (centres undefined)" targetorsystem="UniProt P25103" reading=8.10
compound="CO/N=C(\\C(C)OCc1cc(C(F)(F)F)cc(C(F)(F)F)c1)C(CCN1CCC(O)(c2ccccc2)CC1)c1ccc(Cl)c(Cl)c1 (centres undefined)" targetorsystem="UniProt P25103" reading=7.12
compound="CO/N=C(\\COCc1cc(C(F)(F)F)cc(C(F)(F)F)c1)C(CCN1CCC(CN2CCCCC2=S)CC1)c1ccc(Cl)c(Cl)c1 (centres undefined)" targetorsystem="UniProt P25103" reading=7.70
compound=COc1ccc(-c2nccs2)cc1CN[C@H]1CCCN[C@H]1c1ccccc1 targetorsystem="UniProt P25103" reading=9.10
compound="Cc1cc(F)ccc1[C@H]1CNCCN1C(=O)N1CCC=CC1c1cc(C(F)(F)F)cc(C(F)(F)F)c1 (stereo in doubt; 3a)" targetorsystem="UniProt P25103" reading=7.70
compound="CO/N=C(\\COCc1cc(C(F)(F)F)cc(C(F)(F)F)c1)C(CCN1CCC(NC(=O)C2CCCCC2)CC1)c1ccc(Cl)c(Cl)c1 (centres undefined)" targetorsystem="UniProt P25103" reading=7.36
compound=CC(C)C[C@@H](C(=O)N[C@@H](Cc1c[nH]c2ccccc12)C(N)=O)N1CC[C@@]2(CCCN2C(=O)[C@H](Cc2ccc(O)cc2)NC(=O)[C@H](Cc2ccccc2)NC(=O)[C@H](CCCCN)NC(=O)[C@H](CC(N)=O)NC(=O)[C@@H]2CCCN2C(=O)[C@H](CC(=O)O)NC(=O)[C@H](C)NC(=O)[C@@H]2CCC(=O)N2)C1=O targetorsystem="UniProt P25103" reading=7.25

[P] CO/N=C(\COCc1cc(C(F)(F)F)cc(C(F)(F)F)c1)C(CCN1CCN(CC(=O)N2CCC[C@H]2C(N)=O)CC1)c1ccc(Cl)c(Cl)c1 (some centres undefined)
[Q] COc1ccc(C2(C(F)(F)F)N=N2)cc1CN[C@H]1CCCN[C@H]1c1ccccc1
[R] COc1ccc(C2CCN(CC[C@H](CN(C)C(=O)c3cc(C#N)cc4ccccc34)c3ccc(Cl)c(Cl)c3)CC2)c([S@+](C)[O-])c1
[S] CO/N=C(\COCc1cc(C(F)(F)F)cc(C(F)(F)F)c1)C(CCN1CCN(CC(=O)N2CCCC3CCCCC32)CC1)c1ccc(Cl)c(Cl)c1 (centres undefined)
Request: Rank descending by pKi. Response field: labels, in requested order.
Response: R, Q, P, S

----------
Substance-P receptor (Homo sapiens) Ki, compiled from various sources.
measuredMetric: Ki (nM)

molecule=COc1ccc(-n2nnnc2SC)cc1CN[C@H]1CCCN[C@H]1c1ccccc1.Cl.Cl measuredmetric=Ki reading=0.0398
molecule=Clc1cncc(Cl)c1N/N=C/c1ccccc1-c1ccccc1Br measuredmetric=Ki reading=49
molecule="FC(F)(F)c1cc(COCC(c2cccc3ccccc23)N2CCNCC2)cc(C(F)(F)F)c1 (configuration not stated)" measuredmetric=Ki reading=1.58
molecule=CN(Cc1ccccc1)C(=O)[C@H](Cc1ccc2ccccc2c1)NC(=O)[C@@H]1CCCN1C(=O)Nc1ccccc1C(=O)O measuredmetric=Ki reading=172
molecule="CO/N=C(\\COCc1cc(C(F)(F)F)cc(C(F)(F)F)c1)C(CCN1CCN(CC(=O)NC2CCc3ccccc32)CC1)c1ccc(Cl)c(Cl)c1 (configuration not stated)" measuredmetric=Ki reading=136
molecule=Cc1ccccc1-c1ccc(N2CCN(C)CC2)nc1N(C)C(=O)C(C)(C)c1cc(C(F)(F)F)cc(C(F)(F)F)c1 measuredmetric=Ki reading=2
molecule="CO/N=C(\\COCc1cc(C(F)(F)F)cc(C(F)(F)F)c1)C(CCN1CCN(CC(=O)Nc2ccccc2)CC1)c1ccc(Cl)c(Cl)c1 (configuration not stated)" measuredmetric=Ki reading=125
molecule=CN(C(=O)C(C)(C)c1cc(C(F)(F)F)cc(C(F)(F)F)c1)c1cnc(N2CCCC[C@H]2CO)cc1-c1ccccc1Cl measuredmetric=Ki reading=11.1
molecule="CCCCN1CCN(C(COCc2cc(C(F)(F)F)cc(C(F)(F)F)c2)c2ccccc2)CC1 (configuration not stated)" measuredmetric=Ki reading=2.51
molecule="O=C1CN(C(=O)NCc2cc(C(F)(F)F)cc(C(F)(F)F)c2)C(c2ccccc2)c2ccccc2N1 (configuration not stated)" measuredmetric=Ki reading=631

[A] CO/N=C(\COCc1cc(C(F)(F)F)cc(C(F)(F)F)c1)C(CCN1CCN(c2ncccn2)CC1)c1ccc(Cl)c(Cl)c1 (configuration not stated)
[B] Fc1ccccc1C(COCc1cc(C(F)(F)F)cc(C(F)(F)F)c1)N1CCNCC1 (configuration not stated)
[C] COc1ccc(Br)cc1CN[C@H]1CCCN[C@H]1c1ccccc1
[D] CN(C(=O)c1cc(C(F)(F)F)cc(C(F)(F)F)c1)[C@H](/C=C/C(=O)N[C@@H]1CCCCNC1=O)Cc1ccc(Cl)c(Cl)c1
Request: Rank descending by Ki. Response field: labels, in requested order.
Response: A, B, D, C

[A] CN(C(=O)C(C)(C)c1cc(C(F)(F)F)cc(C(F)(F)F)c1)[C@H]1CN(C(=O)NCCO)C[C@@H]1c1ccc(F)cc1 (racemic)
[B] COc1ccc(-n2cnnn2)cc1CN[C@H]1CCCN[C@H]1c1ccccc1
Request: Which of these two has the smaller recorded Ki: A or B ? Reply briefly: the label of your chosen item.
Response: B

[P] CC(C)C[C@H](NC(=O)CNC(=O)OCc1ccccc1)C(=O)N1Cc2[nH]c3ccccc3c2C[C@H]1C(=O)OCc1cc(C(F)(F)F)cc(C(F)(F)F)c1
[Q] Clc1ccccc1-c1ccccc1/C=N/Nc1c(Cl)cncc1Cl
[R] CN1C(=O)OC2(CCN(CC[C@@](C)(C(=O)N[C@H](C(=O)NCCN)c3ccccc3)c3ccc(Cl)c(Cl)c3)CC2)c2cc(F)ccc21
[S] CN1CCN(C(COCc2cc(C(F)(F)F)cc(C(F)(F)F)c2)c2ccccc2)CC1 (configuration not stated)
Request: Rank descending by Ki. Response field: labels, in requested order.
Response: R, Q, P, S
(R: 251 nM, Q: 174 nM, P: 63 nM, S: 1.58 nM)

----------
Substance-P receptor (Homo sapiens, UniProt P25103) Ki, compiled from various sources.
Sequence (P25103 whole entry): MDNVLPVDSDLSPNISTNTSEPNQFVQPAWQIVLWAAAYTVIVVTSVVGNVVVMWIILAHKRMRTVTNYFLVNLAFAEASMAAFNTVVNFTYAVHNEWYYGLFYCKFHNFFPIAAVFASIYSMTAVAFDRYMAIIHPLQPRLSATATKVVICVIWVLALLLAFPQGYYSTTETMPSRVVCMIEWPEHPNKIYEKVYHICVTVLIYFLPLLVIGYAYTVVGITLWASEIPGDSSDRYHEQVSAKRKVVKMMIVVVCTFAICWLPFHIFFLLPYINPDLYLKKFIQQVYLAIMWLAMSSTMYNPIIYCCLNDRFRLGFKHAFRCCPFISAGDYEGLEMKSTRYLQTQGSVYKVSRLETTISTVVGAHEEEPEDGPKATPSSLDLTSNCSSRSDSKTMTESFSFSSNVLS
measuredMetric: Ki (nM)

compound="COc1ccc(OC)c(S(=O)(=O)N2CCC3(CC2)C2C(=O)N(c4ccccc4)C(=O)C2CN3C(=O)c2cc(C(F)(F)F)cc(C(F)(F)F)c2)c1 (stereo not given)" unitname=nM reading=30.2
compound="CO/N=C(\\COCc1cc(C(F)(F)F)cc(C(F)(F)F)c1)C(CCN1CCN(CC(=O)N(C)C2CCCCC2)CC1)c1ccc(Cl)c(Cl)c1 (stereo not given)" unitname=nM reading=113
compound="NC(=O)COCCN1CCN(C(COCc2cc(C(F)(F)F)cc(C(F)(F)F)c2)c2ccccc2)CC1 (stereo not given)" unitname=nM reading=3.16

[P] CNC(=O)C[C@H]1CCCN(C2CCN(CC[C@@H](/C(CN(C)C(=O)c3cc(Cl)cc(Cl)c3)=N/OC)c3ccc(Cl)c(Cl)c3)CC2)C1
[Q] COc1ccc(-n2nnnc2S(C)(=O)=O)cc1CN[C@H]1CCCN[C@H]1c1ccccc1.Cl.Cl
[R] CN(Cc1ccccc1)C(=O)[C@H](Cc1ccc2ccccc2c1)NC(=O)[C@@H]1CCCN1C(=N)NCc1ccccc1Cl
Request: Arrange these 3 compounds in increasing order of Ki. Response field: labels, in requested order.
Response: Q, R, P

[1] Cc1cc(C)c(C(=O)N2CCC3(CC2)NC(=O)N(c2cc(C(F)(F)F)cc(C(F)(F)F)c2)C3=O)c(C)c1
[2] CC(=O)NC1(C(=O)OCc2cc(C(F)(F)F)cc(C(F)(F)F)c2)CCc2[nH]c3ccccc3c2C1 (stereo not given)
[3] CN(Cc1cc(C(F)(F)F)cc(C(F)(F)F)c1)C(=O)N1CC(=O)Nc2ccccc2C1c1ccccc1 (stereo not given)
Request: Arrange these 3 compounds in increasing order of Ki. Response field: labels, in requested order.
Response: 3, 1, 2
(3: 10 nM, 1: 324 nM, 2: 765 nM)

----------
pKi: −log10 of the molar value.
Substance-P receptor (Homo sapiens) pKi, compiled from various sources.
measuredMetric: pKi

Here are 3 compounds together with their reported answers.
compound=Cc1ccccc1-c1ccncc1C(=O)N(C)Cc1cc(C(F)(F)F)cc(C(F)(F)F)c1 targetorsystem="Substance-P receptor (Homo sapiens)" measuredmetric=pKi reading=8.07
compound="CO/N=C(\\COCc1cc(C(F)(F)F)cc(C(F)(F)F)c1)C(CCN1CCC(C(=O)N2CCCC2)CC1)c1ccc(Cl)c(Cl)c1 (stereo unspecified)" targetorsystem="Substance-P receptor (Homo sapiens)" measuredmetric=pKi reading=8.22
compound=COc1ccc(-n2cnnn2)cc1CN[C@H]1CCCN[C@H]1c1ccccc1.Cl.Cl targetorsystem="Substance-P receptor (Homo sapiens)" measuredmetric=pKi reading=10.40

[1] Cc1cc(F)ccc1[C@H]1C[C@@H](N2CCCC2)CCN1C(=O)N(C)[C@H](C)c1cc(C(F)(F)F)cc(C(F)(F)F)c1
[2] CN1C(=O)OC2(CCN(CC[C@H](C(=O)N(C)[C@@H](Cc3ccccc3)C(=O)NCCN)c3ccc(Cl)c(Cl)c3)CC2)c2cc(F)ccc21
[3] COc1ccc(-n2nnnc2C)cc1CN[C@H]1CCCN[C@H]1c1ccccc1.Cl.Cl
[4] CN(Cc1ccccc1)C(=O)[C@H](Cc1ccc(Cl)c(Cl)c1)NC(=O)[C@@H]1CCCN1/C(S)=N/Cc1ccccc1Cl
[5] CN(Cc1ccccc1)C(=O)[C@H](Cc1cccc2ccccc12)NC(=O)[C@@H]1CCCN1/C(S)=N/Cc1ccccc1Cl
Request: Rank descending by pKi. Response field: labels, in requested order.
Response: 3, 1, 4, 5, 2
(3: 10.30, 1: 9.85, 4: 8.30, 5: 7.86, 2: 6.70)

[1] CO/N=C(\COC(=O)c1cc(C(F)(F)F)cc(C(F)(F)F)c1)C(CCN1CCC(O)(c2ccccc2)CC1)c1ccc(Cl)c(Cl)c1 (stereo unspecified)
[2] Cc1ccccc1-c1cnccc1N(C)C(=O)C(C)(C)c1cc(C(F)(F)F)cc(C(F)(F)F)c1
[3] CO/N=C(\COCc1cc(C(F)(F)F)cc(C(F)(F)F)c1)C(CCN1CCC(NC(=O)c2ccccc2)CC1)c1ccc(Cl)c(Cl)c1 (stereo unspecified)
[4] FC(F)(F)c1cc(CNCc2ccccc2-c2ccccc2)cc(C(F)(F)F)c1
Request: Arrange these 4 compounds in increasing order of pKi. Response field: labels, in requested order.
Response: 4, 1, 3, 2

[A] CO/N=C(\CN(C)C(=O)c1cc(C)nc(N(C)C)c1)C(CCN1CCC(O)(c2ccccc2)CC1)c1ccc(Cl)c(Cl)c1 (stereo unspecified)
[B] CO/N=C(\COCc1cc(C(F)(F)F)cc(C(F)(F)F)c1)C(CCN1CCN(CC(=O)N2CCc3ccccc3C2)CC1)c1ccc(Cl)c(Cl)c1 (stereo unspecified)
[C] CN(Cc1cc(C(F)(F)F)cc(C(F)(F)F)c1)C(=O)c1ccccc1-c1ccccc1Br
Request: Rank descending by pKi. Response field: labels, in requested order.
Response: A, C, B
(A: 8.70, C: 7.35, B: 6.90)
